Test: clinical
Settings: human, in vivo, iv
metric: MRT

- CNCCC=C1c2ccccc2CCc2ccccc21 [NORTRIPTYLINE]: 37 h
- CN1CC[C@]23c4c5ccc(O)c4O[C@H]2[C@@H](O[C@@H]2O[C@H](C(=O)O)[C@@H](O)[C@H](O)[C@H]2O)C=C[C@H]3[C@H]1C5 [MORPHINE GLUCURONIDE]: 0.91 h
- O=C1CCC(N2C(=O)c3ccccc3C2=O)C(=O)N1 (configuration not stated) [THALIDOMIDE]: 4.3 h
- O=P(O)(O)OC(Cn1cncn1)(Cn1cncn1)c1ccc(F)cc1F [FOSFLUCONAZOLE]: 2 h
- CC(=O)Nc1nnc(S(N)(=O)=O)s1 [ACETAZOLAMIDE]: 9.5 h
- CN(C)CCc1c[nH]c2ccc(C[C@H]3COC(=O)N3)cc12 [ZOLMITRIPTAN]: 4.6 h
- CCN1CCN(C(=O)N[C@@H](C(=O)N[C@@H]2C(=O)N3[C@@H]2SC(C)(C)[C@@H]3C(=O)O)c2ccccc2)C(=O)C1=O [PIPERACILLIN]: 1.1 h
- CCN(CC)CCNC(=O)c1ccc(NS(C)(=O)=O)cc1 [SEMATILIDE]: 3.7 h
- CN(C)CCc1c[nH]c2ccc(Cn3cncn3)cc12 [RIZATRIPTAN]: 1.98 h
- CC(C)(C)NC(=O)[C@H]1CC[C@H]2[C@@H]3CC[C@H]4NC(=O)C=C[C@]4(C)[C@H]3CC[C@]12C [FINASTERIDE]: 7.6 h
- CC(C)c1nc(N(C)S(C)(=O)=O)nc(-c2ccc(F)cc2)c1/C=C/[C@@H](O)C[C@@H](O)CC(=O)O [ROSUVASTATIN]: 2.6 h
- N=C(N)c1ccc(CNC(=O)[C@@H]2CCN2C(=O)[C@H](NCC(=O)O)C2CCCCC2)cc1: 2 h
- CNS(=O)(=O)CCc1ccc2[nH]cc(C3CCN(C)CC3)c2c1: 6.1 h
- CN(C)CCC=C1c2ccccc2CCc2ccccc21 [AMITRIPTYLINE]: 24 h
- COc1ccccc1OCCNCC(O)COc1cccc2[nH]c3ccccc3c12 (configuration not stated) [CARVEDILOL]: 2.8 h
- Cc1ccc(O)c([C@H](CCN(C(C)C)C(C)C)c2ccccc2)c1 [TOLTERODINE]: 2.98 h
- Cn1c(=O)c2c(ncn2C)n(C)c1=O [CAFFEINE]: 7.5 h

====

Experiment: clinical
Conditions: human, in vivo, iv
metric: fraction unbound

• COc1cc(NS(C)(=O)=O)ccc1Nc1c2ccccc2nc2ccccc12 [AMSACRINE] = 0.029
• CCOC(=O)C1=C(C)NC(C)=C(C(=O)OC)C1c1cccc([N+](=O)[O-])c1 (centres undefined) [NITRENDIPINE] = 0.02
• O=C1c2cccc3c2[C@H](CCC3)CN1[C@@H]1CN2CCC1CC2 [PALONOSETRON] = 0.38
• CN1C[C@H](C(=O)N[C@]2(C)O[C@@]3(O)[C@@H]4CCCN4C(=O)[C@H](Cc4ccccc4)N3C2=O)C=C2c3cccc4[nH]cc(c34)C[C@H]21 [ERGOTAMINE] = 0.02
• CN1CC[C@H](c2c(O)cc(O)c3c(=O)cc(-c4ccccc4Cl)oc23)[C@H](O)C1 [ALVOCIDIB] = 0.06
• CCCCCc1cc(O)c2c(c1)OC(C)(C)[C@@H]1CCC(C)=C[C@@H]21 [DRONABINOL] = 0.05
• CC(=O)Nc1c(I)c(NC(C)=O)c(I)c(C(=O)O)c1I [DIATRIZOIC ACID] = 1
• CO/N=C(\C(=O)N[C@@H]1C(=O)N2C(C(=O)O)=C(CSc3nc(C)c(CC(=O)O)s3)CS[C@H]12)c1csc(N)n1 [CEFODIZIME] = 0.18
• NNc1nncc2ccccc12 [HYDRALAZINE] = 0.12

====

Experiment: clinical
Conditions: human, in vivo, iv, Vdss
Think of 2 L/kg as a floor: if Vd stands on it or above, it is class 1; beneath it, class 0.

- O=C1CN(/N=C/c2ccc([N+](=O)[O-])o2)C(=O)N1: class 0
- CCCC(=O)Nc1ccc(OCC(O)CNC(C)C)c(C(C)=O)c1 (configuration not stated): class 0
- C[C@@H]1CN(c2c(F)c(N)c3c(=O)c(C(=O)O)cn(C4CC4)c3c2F)C[C@H](C)N1: class 1
- CC[C@@]1(O)C(=O)OCc2c1cc1n(c2=O)Cc2c-1nc1cc(F)c(C)c3c1c2[C@@H](N)CC3: class 0
- NCC[C@H](O)C(=O)N[C@@H]1C[C@H](N)[C@@H](O[C@H]2O[C@H](CN)[C@@H](O)[C@H](O)[C@H]2O)[C@H](O)[C@H]1O[C@H]1O[C@H](CO)[C@@H](O)[C@H](N)[C@H]1O: class 0
- CC(=O)O[C@H]1C(=O)[C@@]2(C)[C@H]([C@H](OC(=O)c3ccccc3)[C@]3(O)C[C@H](OC(=O)[C@H](O)[C@@H](NC(=O)c4ccccc4)c4ccccc4)C(C)=C1C3(C)C)[C@]1(OC(C)=O)CO[C@@H]1C[C@@H]2O: class 1
- CC(=O)O[C@H]1C[C@@H]2CC[C@@H]3[C@H](CC[C@@]4(C)[C@H]3C[C@H]([N+]3(C)CCCCC3)[C@@H]4OC(C)=O)[C@@]2(C)C[C@@H]1N1CCCCC1.[Br-] [VECURONIUM BROMIDE]: class 0

====

Assay: clinical
Settings: human, in vivo, iv, Vdss
Think of 2 L/kg as a floor: if Vd stands on it or above, it is 1; beneath it, -1.

- COCC(=O)O[C@]1(CCN(C)CCCc2nc3ccccc3[nH]2)CCc2cc(F)ccc2[C@@H]1C(C)C [MIBEFRADIL]: 1
- CC(CC(c1ccccc1)c1ccccc1)NC(C)(C)C (configuration not stated) [TERODILINE]: 1
- Cc1cc(O)c2c(=O)c3c(O)cc(O)c4c5c(O)cc(O)c6c(=O)c7c(O)cc(C)c8c1c2c(c34)c(c78)c65 [HYPERICIN]: -1
- Nc1c(CC(=O)O)cccc1C(=O)c1ccc(Br)cc1 [BROMFENAC]: -1
- COc1cc2c(cc1O)CCN[C@]21CS[C@@H]2c3c(OC(C)=O)c(C)c4c(c3[C@H](COC1=O)N1[C@@H]2[C@H]2c3c(cc(C)c(OC)c3O)C[C@@H]([C@@H]1O)N2C)OCO4 [TRABECTEDIN]: 1
- CC(=O)NC[C@H]1CN(c2ccc(N3CCOCC3)c(F)c2)C(=O)O1 [LINEZOLID]: -1
- C#C[C@]1(O)CC[C@H]2[C@@H]3CCc4cc(OS(=O)(=O)O)ccc4[C@H]3CC[C@@]21C: 1

====

Test: clinical
Details: human, in vivo, iv, CL
// reported clearance for each item listed
metric: clearance (mL/min/kg)

- CN1CCN(CCCCN2C(=O)CN(/N=C/c3ccc(-c4ccc(Cl)cc4)o3)C2=O)CC1 [AZIMILIDE]: 2.4
- CCS(=O)(=O)CCn1c([N+](=O)[O-])cnc1C: 0.6
- c1ccc2c(c1)OCC(C1=NCCN1)O2 (stereo not given): 10
- O=C1CN(/N=C/c2ccc(-c3ccc([N+](=O)[O-])cc3)o2)C(O)=N1: 0.43
- CCOc1ccccc1OCCN[C@H](C)Cc1ccc(OC)c(S(N)(=O)=O)c1: 0.62
- O=c1c(O)c(-c2ccc(O)c(O)c2)oc2cc(O)cc(O)c12: 11
- CN(C)C(=O)Oc1cc(OC(=O)N(C)C)cc(C(O)CNC(C)(C)C)c1 (stereo not given): 18
- Cc1ccc(-c2ncc(Cl)cc2-c2ccc(S(C)(=O)=O)cc2)cn1: 0.79
- Cc1cccc(C)c1NC(=O)C(C)N (stereo not given) [TOCAINIDE]: 2.2
- CC(C)NCC(O)COc1ccc(COCCOC(C)C)cc1 (stereo not given): 3.7

====

Test: clinical
Conditions: human, in vivo, iv, CL
// reported clearance for each item listed
metric: clearance (mL/min/kg)

• CC[C@H](C)C(=O)O[C@H]1C[C@@H](C)C=C2C=C[C@H](C)[C@H](CC[C@@H]3C[C@@H](O)CC(=O)O3)[C@H]21 [LOVASTATIN] = 7.2
• CN(C)CCCN1c2ccccc2Sc2ccccc21 [PROMAZINE] = 14
• NC[C@H]1O[C@H](O[C@H]2[C@H](O)[C@@H](O[C@H]3O[C@H](CO)[C@@H](O)[C@H](N)[C@H]3O)[C@H](N)C[C@@H]2N)[C@H](O)[C@@H](O)[C@@H]1O [KANAMYCIN] = 1.4
• O=C1c2ccccc2S(=O)(=O)N1CCCCNC[C@H]1CCc2ccccc2O1 [REPINOTAN] = 2.2
• C[C@@H]1O[C@@H]1P(=O)(O)O [FOSFOMYCIN] = 2
• CN(CC(N)=O)C(=O)N(CCCl)N=O [SARCNU] = 9
• [H]/N=C(/N)N[C@H]1[C@H](O)[C@@H](O)[C@H](O[C@@H]2O[C@@H](C)[C@](O)(C=O)[C@H]2O[C@@H]2O[C@@H](CO)[C@H](O)[C@@H](O)[C@@H]2NC)[C@@H](N/C(N)=N\[H])[C@@H]1O [STREPTOMYCIN] = 0.78
• CN(C)[C@@H]1C(O)=C(C(=O)NCN2CCCC2)C(=O)[C@@]2(O)C(O)=C3C(=O)c4c(O)cccc4[C@@](C)(O)[C@H]3C[C@@H]12 [ROLITETRACYCLINE] = 0.97
• CC(C)(C)[C@H](NC(=O)[C@H](CC1CCCC1)CN(O)C=O)C(=O)N1CCN(Cc2ccc3c(c2)OCO3)CC1 = 3.1
• COc1ccccc1Oc1c(NS(=O)(=O)c2ccc(C(C)(C)C)cc2)nc(-c2ncccn2)nc1OCCO [BOSENTAN] = 2.1
• O=C1c2c(O)ccc(O)c2C(=O)c2c(NCCNCCO)ccc(NCCNCCO)c21 [MITOXANTRONE] = 7.9
• CC(=O)OCC1=C(C(=O)O)N2C(=O)[C@@H](NC(=O)CSc3ccncc3)[C@H]2SC1 [CEPHAPIRIN] = 2.7
• CC(C)(O/N=C(\C(=O)N[C@@H]1C(=O)N2C(C(=O)[O-])=C(C[n+]3ccccc3)CS[C@H]12)c1csc(N)n1)C(=O)O [CEFTAZIDIME] = 2.4
• CCCCCN(CCCOC)C(=O)[C@@H](CCC(=O)O)NC(=O)c1ccc(Cl)c(Cl)c1 [DEXLOXIGLUMIDE] = 3.7
• CN(C)C(=N)N=C(N)N [METFORMIN] = 7.4
• N=C(N)c1ccc(OCCCCCOc2ccc(C(=N)N)cc2)cc1 [PENTAMIDINE] = 74
• CC(C)NCC(O)c1ccc(O)c(O)c1 (centres undefined) [ISOPROTERENOL] = 56
• O=C(O)[C@H]1/C(=C/CO)O[C@@H]2CC(=O)N21 [CLAVULANIC ACID] = 3.1
• CC(=O)O[C@H]1C[C@@H]2CC[C@@H]3[C@H](CC[C@@]4(C)[C@H]3C[C@H]([N+]3(C)CCCCC3)[C@@H]4OC(C)=O)[C@@]2(C)C[C@@H]1N1CCCCC1.[Br-] [VECURONIUM BROMIDE] = 4.5
